test system: bermudagrass (Cynodon dactylon); assay: Test C pre/postemergence; format: in vivo; settings: Cynodon dactylon, pre-emergence; Preemergence, 125 g ai/ha; scale 0 to 100; read-out: Plant response rating, Bermudagrass
Text: […]
Kindly state pest or weed control at 125 g/ha for each of the entries shown.
One number for each entry, in %.

- Entry Smiles: "Nc1nc(C2CC2)nc(C(=O)OCc2ccccc2)c1Br"
  Result Units: "%"
  Val: 50
- Entry Smiles: "CNc1nc(C2CC2)nc(C(=O)OC)c1Br"
  Result Units: "%"
  Val: 0
- Entry Smiles: "CCOC(=O)c1nc(C2CC2)nc(N)c1Cl"
  Result Units: "%"
  Val: 20
- Entry Smiles: "COC(=O)c1nc(C2CC2)nc(N)c1F"
  Result Units: "%"
  Val: 10

Note: attention shifts to another entry.
### Prompt Data request, read-out pest or weed control at 125 g/ha, for `Nc1nc(C2CC2)nc(C=O)c1Br`
### Response 0
